Assay: PSAC antagonists in infected red cells, primary screen, cell-based, P. falciparum Indochina, OD700, 18 h (AID 1157)
Conditions: P. falciparum Indochina infected erythrocytes, osmotic lysis OD700, 18 h; higher = more signal, called active from +8 up or from −8 down
Could you please classify the records by z-score using these ranges: b0 = under 0.3, b1 = from 0.3 up to 0.7, b2 = 0.7 and over

Below are worked cases with known answers.
# compound, groupLabel
rows = [
    ("C=CCN1C(=O)[C@]2(O[C@H](CCO)[C@@H]([Si](C)(C)c3ccc(OC)cc3)[C@@H]2C)c2cc(N3C(=O)c4ccccc4Oc4ccccc43)ccc21", "b2"),
    ("CN(C)CCCCCCNC(=O)[C@@H]1C[C@@H]2C(=O)N[C@@H](CCCC[N+](C)(C)C)C(=O)N2[C@@H]1c1cccc(OCCO)c1", "b0"),
    ("CN1C(=O)C2C=CC(C(O)c3cccs3)N(N(c3ccccc3)c3ccccc3)C2C1=O (stereo not given)", "b1"),
    ("C=C(CCCC)C(=O)CC[C@@H](OC(C)=O)c1ccc(OCCO)cc1", "b1"),
    ("CCOC(=O)C1=CCC(c2cccn2C(=O)OC(C)(C)C)N(S(=O)(=O)c2ccc(C)cc2)C1 (stereo not given)", "b1"),
    ("CCCCN1CC=CC23O[C@@H]4/C=C\\CCCOC(=O)C4[C@H]2C(=O)N(CCCCCCO)[C@@H]3C1=O (stereo not given in full)", "b0"),
    ("COc1ccc([Si](C)(C)[C@H]2[C@H](CC(=O)N3CCC[C@H]3CO)O[C@@]3(C(=O)N(C)c4c(Br)cc(C)cc43)[C@@H]2C)cc1", "b1"),
    ("O=C(NCC(F)(F)F)[C@@H]1c2ccccc2C(=O)N(Cc2cc(C(F)(F)F)cc(C(F)(F)F)c2)[C@H]1c1ccc(CO)cc1", "b0"),
]

Data request: Dear colleague, I would appreciate it if you could identify the bin for O=C1C2C=CC(C(O)C3CC=CCC3)N(Nc3ccc([N+](=O)[O-])cc3)C2C(=O)N1c1ccccc1 (stereo not given) and reply at your convenience.
Data returned: b2

Data request: Dear colleague, I would appreciate it if you could identify the bin for C=C(C(=O)CC[C@@H](OC(=O)c1ccccc1-c1ccccc1C(=O)O)c1ccc(CO)o1)C(C)C and reply at your convenience.
Data returned: b0

Data request: Dear colleague, I would appreciate it if you could identify the bin for O=C1c2ccccc2[C@@]2(Cc3ccccc3N(CC(F)(F)F)C2=O)[C@H](c2ccc(CO)cc2)N1Cc1ccccc1 and reply at your convenience.
Data returned: b0

Data request: Dear colleague, I would appreciate it if you could identify the bin for COc1ccc(NN2C(C(O)c3ccc(F)cc3)C=CC3C(=O)N(C4CCCCC4)C(=O)C32)cc1 (stereo not given) and reply at your convenience.
Data returned: b2

Data request: Dear colleague, I would appreciate it if you could identify the bin for O=C1O[C@H](c2ccccc2)[C@H](c2ccccc2)N2[C@H]1[C@@H](C(=O)N1CCN(c3ncccn3)CC1)[C@]1(C(=O)Nc3ccc(C#CC4(O)CCCCCC4)cc31)[C@H]2c1ccc(O)cc1 and reply at your convenience.
Data returned: b1

Data request: Dear colleague, I would appreciate it if you could identify the bin for COCCOC(=O)N1C(=O)[C@@]2(c3cc(C#CC4(O)CCCCCC4)ccc31)[C@H](C(N)=O)[C@H]1C(=O)O[C@H](c3ccccc3)[C@H](c3ccccc3)N1[C@@H]2c1ccc(OCCO)cc1 and reply at your convenience.
Data returned: b2
